TEST TARGET: T1, human Claudin 18.2 (hCLDN18.2) (human, UniProt P56856-2 1-261)
T1 construct: whole, on cells; also called CLDN18A2; claudin 18 splice variant 2
EXPERIMENT: FACS, HEK293-hCLDN18.2 cells
READOUT LABEL: EC50 (pM)
Numeric only. Scale: pM

# count of solved cases: 2
hu299B2-S32A-3 (antibody, V domains shown, also called humanized antibody hu299B2-S32A) VH: QVQLVQSGAEVKKPGASVKVSCKASGYIFTNYWIHWVRQAPGQGLEWMGRIYPGTGNTYYNEKFTGRVTMTRDTSTSTVYMELSSLRSEDTAVYYCAREGYGKGNSMDYWGQGTTVTVSS VL: DIVMTQSPDSLAVSLGERVTMNCKSSQSLLNAGNQKNYLTWYQQKPGQPPKLLFYWASTRESGVPDRFSGSGSGTDFTLTISSVQAEDVAVYHCQNAYYYPYTFGGGTKLEIK	399
hu299B2-S32A-2 (antibody, V domains shown, also called humanized antibody hu299B2-S32A) VH: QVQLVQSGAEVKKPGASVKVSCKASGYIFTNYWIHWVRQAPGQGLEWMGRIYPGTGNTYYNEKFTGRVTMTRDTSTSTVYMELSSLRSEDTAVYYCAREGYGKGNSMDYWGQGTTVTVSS VL: DIVMTQSPDSLAVSLGERATMNCKSSQSLLNAGNQKNYLTWYQQKPGQPPKLLFYWASTRESGVPDRFSGSGSGTDFTLTISSLQAEDVAVYHCQNAYYYPYTFGGGTKLEIK	463

In: What value of measured EC50 is listed for hu299B2-S32A-4 (antibody, V domains shown, also called humanized antibody hu299B2-S32A) VH: QVQLVQSGAEVKKPGASVKVSCKTSGYIFTNYWIHWVRQAPGQGLEWMGRIYPGTGNTYYNEKFTGRVTLTADTSTSTVYMELSSLRSEDTAVYYCSREGYGKGNSMDYWGQGTTVTVSS VL: DIVMTQSPDSLAVSLGERATINCKSSQSLLNAGNQKNYLTWYQQKPGQPPKLLIYWASTRESGVPDRFSGSGSGTDFTLTISSLQAEDVAVYYCQNAYYYPYTFGGGTKLEIK ?
Out: 318

In: What value of measured EC50 is listed for hu299B2-S32A-1 (antibody, V domains shown, also called humanized antibody hu299B2-S32A) VH: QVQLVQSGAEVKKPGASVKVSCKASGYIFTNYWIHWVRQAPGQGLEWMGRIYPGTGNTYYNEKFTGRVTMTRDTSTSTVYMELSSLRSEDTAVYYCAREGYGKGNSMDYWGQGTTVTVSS VL: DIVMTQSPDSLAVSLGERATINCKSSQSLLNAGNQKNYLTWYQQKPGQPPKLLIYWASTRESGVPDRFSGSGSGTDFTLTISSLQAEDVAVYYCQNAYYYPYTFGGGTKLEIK ?
Out: 407

The measurements presented in this section are drawn from patent US20220411492A1.
